Biological target: SARS-CoV-2病毒N蛋白(全长) (SARS-CoV-2, UniProt P0DTC9 1-419)
recordedMetric: EC50 (ng/mL)
Provide the reading as a plain figure in ng/mL.

Request: Report EC50, nothing else, for this binder: nCoV457 (antibody, V domains shown) VH: QVQLVESGGGVVQPGRSLRLSCVASGFTFSRYIIHWVRQAPGKGLEWVAVISYDGTAALYADTVKGRFTISRDNSKNTLYLQMNSLRADDTAVYYCARETGEMSTSYFEYWGQGTLVTVSS VL: QLVLTQSPSASASLGASVKLTCTLSSRHNNYAIAWHQQQPEKGPRFLMKVNSDGSHTKGDGIPDRFSGSSSGAERYLTISSLQSDDEADYYCQTWGTGNQVFGGGTKVTVL
Response: 2.6

Now look at this entry.
Request: Return EC50 (reported value) for this binder: nCoV454 (antibody, V domains shown) VH: QVQLVESGGGVVQPGGSLRLSCVTSGFTFSNYAMHWVRQAPGKGLEWVAIISYDGSHLYGDSVKGRFTISRDNSKNTLYLEMSSLRNEDTATYYCARETPEVSGSWIDYWGQGALVIVSS VL: QLVLTQSPSASASLGASVNLTCTLTSGHNSYAIAWHQQQPNKGPRYLMKLNSDGSHDKGDGIPDRFSGSSSGTERYLTISSLQSEDEADYYCQTWGTGVQVFGGGTKLTVL
Response: 5

All figures here come from patent CN113234145A.
